system: Plasmodium falciparum Sir2 (PF13_0152, Sir2A); assay: pfSir2 binders on small-molecule microarrays, primary screen, biochemical, small-molecule microarray, 635 nm fluorescence (AID 1098); conditions: small-molecule microarray binding, fluorescence 635 nm; higher = more signal;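 also: score merges spot fluorescence intensity with its signal-to-noise ratio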
# composite z-score per entry

[
  {
    "Molecule": "O=C1O[C@H](c2ccccc2)[C@H](c2ccccc2)N2[C@H]1[C@@H](C(=O)N1CCCCCCC1)[C@]1(C(=O)Nc3ccc(C#CCCO)cc31)[C@H]2c1ccccc1OCCO",
    "composite z-score": 2.26
  },
  {
    "Molecule": "COC(=O)[C@@]1(Cc2ccc(F)cc2)[C@H]2c3cc(C(=O)N(C)C)n(Cc4ccc(Cl)c(C(F)(F)F)c4)c3C[C@H]2CN1C(=O)c1ccccc1",
    "composite z-score": 0.546
  },
  {
    "Molecule": "COCCOC(=O)N1C(=O)[C@@]2(c3ccccc31)[C@H](c1ccccc1OCCO)N1[C@H](c3ccccc3)[C@H](c3ccccc3)OC(=O)[C@H]1[C@@H]2C(=O)N1CCN(c2ncccn2)CC1",
    "composite z-score": 1.21
  },
  {
    "Molecule": "C=CCOC(=O)[C@H]1[C@@H]2C(=O)O[C@@H](c3ccccc3)[C@@H](c3ccccc3)N2[C@@H](c2ccc(OCCOC(=O)[C@H]3C[C@H]4C(=O)N[C@@H](CCCC[N+](C)(C)C)C(=O)N4[C@H]3c3ccc(O)cc3)cc2)[C@]12C(=O)Nc1ccc(I)cc12",
    "composite z-score": 1.48
  },
  {
    "Molecule": "CO[C@H]1O[C@H](CO)[C@@H](OC(=O)Nc2ccc(C(F)(F)F)cc2)[C@H](OC(=O)Nc2ccc3c(c2)OCO3)[C@@H]1OC(=O)Nc1ccc2c(c1)OCO2",
    "composite z-score": 1.06
  },
  {
    "Molecule": "C=CC[C@@]1(C(=O)NCCN2CCOCC2)N=C(c2ccc(OCCCO)cc2)O[C@@H]1c1ccccc1N=[N+]=[N-]",
    "composite z-score": 0.241
  }
]
